System: NCI-H69 (Small Cell Lung Carcinoma)
Experiment: Bliss excess, mean over the matrix (fraction); higher = more synergy
Catalogue of Bliss excess values
Reported endpoint: Bliss excess

1. C[C@@H](c1ccc2nccn2c1)n1nnc2ncc(-c3cnn(C)c3)nc21 [Savolitinib] + CC1(C)CCC(CN2CCN(c3ccc(C(=O)NS(=O)(=O)c4ccc(NCC5CCOCC5)c([N+](=O)[O-])c4)c(Oc4cnc5[nH]ccc5c4)c3)CC2)=C(c2ccc(Cl)cc2)C1 [Venetoclax] (first compound max 1 µM, 7x7, partner max 1 µM)
-0.0144
2. COc1cccc(OCCCN)c1-c1cc(Nc2cnc(C#N)cn2)n[nH]1 [Prexasertib] + Cc1cc2ncnn2cc1Nc1ncc2c(n1)n(C1CCOCC1)c(=O)n2C [AZD7648] (first compound max 1 µM, 7x7, partner max 10 µM)
0.0337

###

Test system: CAPAN-1 (Pancreatic Carcinoma)
Assay: combination Emax (second highest fraction inhibited in the dose matrix, 72 h); higher = more inhibition; extreme values may be limits of the assay
Reported endpoint: combination Emax

1) COc1cccc(OCCCN)c1-c1cc(Nc2cnc(C#N)cn2)n[nH]1 [Prexasertib] + C[C@@H]1COCCN1C2=NC(=NC(=C2)C3(CC3)[S@](=N)(=O)C)C4=C5C=CNC5=NC=C4 [AZD6738] (first compound max 1 µM, 7x7, partner max 10 µM)
0.527
2) C[C@@H](Nc1cc(F)cc(F)c1)c1cc(C(=O)N(C)C)cc2c(=O)cc(N3CCOCC3)oc12 [AZD8186] + CC(=O)c1c(C)c2cnc(Nc3ccc(N4CCNCC4)cn3)nc2n(C2CCCC2)c1=O [Palbociclib] (first compound max 10 µM, 7x7, partner max 10 µM)
0.247
3) NC1(C(=O)N[C@@H](CCO)c2ccc(Cl)cc2)CCN(c2ncnc3[nH]ccc23)CC1 [Capivasertib] + Cn1cnc2c(F)c(Nc3ccc(Br)cc3Cl)c(C(=O)NOCCO)cc21 [Selumetinib] (first compound max 10 µM, 7x7, partner max 10 µM)
0.476
4) COc1nnc2ccc(N3CCC(c4ccc(OCCN5CCN(C)C(=O)[C@H]5C)cc4)CC3)nn12 [AZD5153] + CC1(C)CCC(CN2CCN(c3ccc(C(=O)NS(=O)(=O)c4ccc(NCC5CCOCC5)c([N+](=O)[O-])c4)c(Oc4cnc5[nH]ccc5c4)c3)CC2)=C(c2ccc(Cl)cc2)C1 [Venetoclax] (first compound max 1 µM, 7x7, partner max 1 µM)
0.335
5) Cc1c2c(nn1C)CSCc1cc(n(C)n1)CSc1cc(c3ccccc3c1)OCCCc1c(C(=O)O)n(C)c3c-2c(Cl)ccc13 [AZD5991] + C[C@@H]1COCCN1C2=NC(=NC(=C2)C3(CC3)[S@](=N)(=O)C)C4=C5C=CNC5=NC=C4 [AZD6738] (first compound max 1 µM, 7x7, partner max 10 µM)
0.488
6) N#Cc1cnc(Nc2cc(NC[C@H]3CNCCO3)c(C(F)(F)F)cn2)cn1 [SRA737] + O=c1[nH]cc(F)c(=O)[nH]1 [5-Fluorouracil] (first compound max 10 µM, 7x7, partner max 20 µM)
0.349
7) Cc1cc2ncnn2cc1Nc1ncc2c(n1)n(C1CCOCC1)c(=O)n2C [AZD7648] + CCN(CCO)CCCOc1ccc2c(Nc3cc(CC(=O)Nc4cccc(F)c4)[nH]n3)ncnc2c1 [AZD2811] (first compound max 10 µM, 7x7, partner max 1 µM)
0.299

###

System: PCI-30 (Head and Neck Carcinoma)
Assay: Bliss excess, mean over the matrix (fraction); higher = more synergy
Reported endpoint: Bliss excess

1) O=C(c1cc(Cc2n[nH]c(=O)c3ccccc23)ccc1F)N1CCN(C(=O)C2CC2)CC1 [Olaparib] + COc1nnc2ccc(N3CCC(c4ccc(OCCN5CCN(C)C(=O)[C@H]5C)cc4)CC3)nn12 [AZD5153] (first compound max 10 µM, 7x7, partner max 1 µM)
-0.0144
2) Cc1c2c(nn1C)CSCc1cc(n(C)n1)CSc1cc(c3ccccc3c1)OCCCc1c(C(=O)O)n(C)c3c-2c(Cl)ccc13 [AZD5991] + Cc1cc2ncnn2cc1Nc1ncc2c(n1)n(C1CCOCC1)c(=O)n2C [AZD7648] (first compound max 1 µM, 7x7, partner max 10 µM)
-0.0572
3) COc1cc2c(cc1OCCCCCOc1cc3c(cc1OC)C(=O)N1C=C(C)C[C@H]1C=N3)N=C[C@@H]1CC(C)=CN1C2=O [SG3199] + O=C(c1cc(Cc2n[nH]c(=O)c3ccccc23)ccc1F)N1CCN(C(=O)C2CC2)CC1 [Olaparib] (first compound max 0.001 µM, 7x7, partner max 10 µM)
-0.0328

###

System: CAPAN-1 (Pancreatic Carcinoma)
Experiment: Bliss excess, mean over the matrix (fraction); higher = more synergy
Reported endpoint: Bliss excess

1. COc1nnc2ccc(N3CCC(c4ccc(OCCN5CCN(C)C(=O)[C@H]5C)cc4)CC3)nn12 [AZD5153] + C=CCn1c(=O)c2cnc(Nc3ccc(N4CCN(C)CC4)cc3)nc2n1-c1cccc(C(C)(C)O)n1 [AZD1775] (first compound max 1 µM, partner max 1 µM)
-0.0397
2. COc1cccc(OCCCN)c1-c1cc(Nc2cnc(C#N)cn2)n[nH]1 [Prexasertib] + C[C@@H]1COCCN1C2=NC(=NC(=C2)C3(CC3)[S@](=N)(=O)C)C4=C5C=CNC5=NC=C4 [AZD6738] (first compound max 1 µM, 7x7, partner max 10 µM)
-0.0436
3. NC1(C(=O)N[C@@H](CCO)c2ccc(Cl)cc2)CCN(c2ncnc3[nH]ccc23)CC1 [Capivasertib] + COc1nnc2ccc(N3CCC(c4ccc(OCCN5CCN(C)C(=O)[C@H]5C)cc4)CC3)nn12 [AZD5153] (first compound max 10 µM, 7x7, partner max 1 µM)
-0.0045
4. Cc1c2c(nn1C)CSCc1cc(n(C)n1)CSc1cc(c3ccccc3c1)OCCCc1c(C(=O)O)n(C)c3c-2c(Cl)ccc13 [AZD5991] + CCN(CCO)CCCOc1ccc2c(Nc3cc(CC(=O)Nc4cccc(F)c4)[nH]n3)ncnc2c1 [AZD2811] (first compound max 1 µM, 7x7, partner max 1 µM)
-0.0303
5. C[C@@H]1COCCN1c1cc(C2([S@](C)(=N)=O)CC2)nc(-c2ccnc3[nH]ccc23)n1 [AZD6738] + C1CC(C1)(C(=O)[O-])C(=O)[O-].N.N.[Pt+2] [Carboplatin] (first compound max 10 µM, 7x7, partner max 10 µM)
-0.0624
6. C[C@@H](Oc1cc(-c2cnn(C3CCNCC3)c2)cnc1N)c1c(Cl)ccc(F)c1Cl [Crizotinib] + CC1=C(C(=CC=C1)Cl)NC(=O)C2=CN=C(S2)NC3=CC(=NC(=N3)C)N4CCN(CC4)CCO [Dasatinib] (first compound max 10 µM, 7x7, partner max 2 µM)
-0.0481
7. CC(=O)c1c(C)c2cnc(Nc3ccc(N4CCNCC4)cn3)nc2n(C2CCCC2)c1=O [Palbociclib] + CC1(C)CCC(CN2CCN(c3ccc(C(=O)NS(=O)(=O)c4ccc(NCC5CCOCC5)c([N+](=O)[O-])c4)c(Oc4cnc5[nH]ccc5c4)c3)CC2)=C(c2ccc(Cl)cc2)C1 [Venetoclax] (first compound max 10 µM, 7x7, partner max 1 µM)
-0.019

###

Catalogue of Bliss excess values
Test system: NCI-H747 (Colorectal Carcinoma)
Assay: Bliss excess, mean over the matrix (fraction); higher = more synergy
Reported endpoint: Bliss excess

1. CN(CCO)CC[C@H](CSc1ccccc1)Nc1ccc(S(=O)(=O)NC(=O)c2ccc(N3CCC([C@@H](O)c4ccccc4-c4ccc(Cl)cc4)CC3)cc2)cc1S(=O)(=O)C(F)(F)F [AZD4320] + Cn1cnc2c(F)c(Nc3ccc(Br)cc3Cl)c(C(=O)NOCCO)cc21 [Selumetinib] (first compound max 1 µM, 7x7, partner max 3 µM)
-0.0306
2. Cn1cnc2c(F)c(Nc3ccc(Br)cc3Cl)c(C(=O)NOCCO)cc21 [Selumetinib] + CCN(CCO)CCCOc1ccc2c(Nc3cc(CC(=O)Nc4cccc(F)c4)[nH]n3)ncnc2c1 [AZD2811] (first compound max 10 µM, 7x7, partner max 1 µM)
-0.0428
3. Cc1cc2ncnn2cc1Nc1ncc2c(n1)n(C1CCOCC1)c(=O)n2C [AZD7648] + C=CCn1c(=O)c2cnc(Nc3ccc(N4CCN(C)CC4)cc3)nc2n1-c1cccc(C(C)(C)O)n1 [AZD1775] (first compound max 10 µM, partner max 1 µM)
-0.0108
4. NC1(C(=O)N[C@@H](CCO)c2ccc(Cl)cc2)CCN(c2ncnc3[nH]ccc23)CC1 [Capivasertib] + CCN(CCO)CCCOc1ccc2c(Nc3cc(CC(=O)Nc4cccc(F)c4)[nH]n3)ncnc2c1 [AZD2811] (first compound max 10 µM, 7x7, partner max 1 µM)
-0.0255

###

Catalogue of combination Emax values
Tested on: SK-OV-3 (Ovarian Carcinoma)
Experiment: combination Emax (second highest fraction inhibited in the dose matrix, 72 h); higher = more inhibition; extreme values may be limits of the assay
Reported endpoint: combination Emax

1. Cc1nc(Nc2ncc(C(=O)Nc3c(C)cccc3Cl)s2)cc(N2CCN(CCO)CC2)n1 [Dasatinib] + CC(=O)Nc1cccc(-n2c(=O)n(C3CC3)c(=O)c3c(Nc4ccc(I)cc4F)n(C)c(=O)c(C)c32)c1 [Trametinib] (first compound max 2 µM, 7x7, partner max 1 µM)
0.392
2. CN(CCO)CC[C@H](CSc1ccccc1)Nc1ccc(S(=O)(=O)NC(=O)c2ccc(N3CCC([C@@H](O)c4ccccc4-c4ccc(Cl)cc4)CC3)cc2)cc1S(=O)(=O)C(F)(F)F [AZD4320] + CS(=O)(=O)CCNCc1ccc(-c2ccc3ncnc(Nc4ccc(OCc5cccc(F)c5)c(Cl)c4)c3c2)o1 [Lapatinib] (first compound max 1 µM, 7x7, partner max 10 µM)
0.869
3. CC1(C)CCC(CN2CCN(c3ccc(C(=O)NS(=O)(=O)c4ccc(NCC5CCOCC5)c([N+](=O)[O-])c4)c(Oc4cnc5[nH]ccc5c4)c3)CC2)=C(c2ccc(Cl)cc2)C1 [Venetoclax] + Cn1cnc2c(F)c(Nc3ccc(Br)cc3Cl)c(C(=O)NOCCO)cc21 [Selumetinib] (first compound max 1 µM, 7x7, partner max 3 µM)
0.137
